Measured values drawn from a protein production outcome set (Wang et al. 2014) for this set.

test.name: label from the status in PepcDB records;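 also: failed if final PepcDB status was selected cloned or expressed and not failed if soluble or beyond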
assay.endpoint: protein production

primary.sequence	observed.measurement
MKIITIEEHFESEVITNEINKVTGNLVSGQVSPEMFQYMQKELPSAMEMQDTEKRLAFMDQHGIDMQVLSYGNSSPQNLGPKISVALCKRANDELAKVIQQNPTRFAGFAVLPVGSPEDAAIELKRAVEELGFKGALVKGQFENKYFDNSFYYPIFEMAEKLDVPISFHPSFIPEPITEQYFASDAWSDVVTGVFSSAGFGWHMDVGIQVVRMILSGIFDKLPNLKIITGHLGEMVPMFLNRMDDTLGHWTTLERKISDYYRTNVYVTPSGLLYKNEWKFLLNELDENHLIYALDYPFVKTENAGTFLDTLDLTDEVKAKIAHENAEKLLHL	not failed
MEDSSLLSPISLLTIVIFLFILNLMMIIQDFSSSFPFRFHLFFSNAYILFTSIRNNKQNTELPIIKKVVVPNRADIKTSVEEVKAIIDDSEALYECLIEEGEEYLLEKNEMMGKEIVKEAFRLFDENQDGFIDENELKHVLSLLGYDECTKMECRKMVKVYDENRDGKIDFYEFVKLIEKSFS	failed
MPKTLLIPGLDGSPAAHWQQWWALRDPDALLLDLSDVSRPVPAVWEIEVAGAILQHPGAILVGHSLGAILIARLLAKWPHLKVGGAILVAPAEPRHSDRTESFGPIFEESLGVPAYVVSSRNDPWMSFTQAERLARAWRADVVDLGFAGHINVDSGFGPWPGGVVLRDELARRPVP	failed
MRYLIGGIFLLISIWQFIVTGRTFSYLKKEGGKRTSPFILLGLWSSLVFAIISFAVAIASFFYVSF	failed
MDAKHIEKVFVKKVPAKSNKAQVKYPFDENSVNVLIIGLDKASNRSTYDLHRTDTILFLNINFKDKKVKGISIPRDTLTEIYKVGKWDKINSAFGYGGGEKEEGFFYTMETVSKLLGGMPIEYYVGFDLDAVRKVVNILGGVYVNVEVPVKVKTKWVNIDLKPGYQKLNGIETLYYALWRKTPGGDIDRIKRDKELILSVFEQLKESNKIITLPEIYWKIRRHFYTNLSLQQITSLAYFAQNMKKEDIVFESIPGDYFNYMGVSYWKPDYEGIKKLVKDLFGYDIEIDLKMPEKYKYARRIIVKAKKENNISYLEHHHHHH	not failed

stdin: Could you share which protein production value was measured for `MGHHHHHHSHGSYANEISSSIIINRPAERLFDLWRKPETLPILMGHFASIEILNHTDSNWRINTPIGSLIEWQARIIDEKPGEYIHWRSLEGARVPNEGRLSFQPAASEAGTAVTLTIRYNPPGGLIGKKIGQMFDMFSRDMLTKTLYRFKKLAEDER` ?
stdout: not failed

stdin: Could you share which protein production value was measured for `MSKREDEGCARKRRTEAGQRSEDCMNPNSVVISAFKVFQQELDTRYDKYERLVKISRDVTIESKRTIFLLHRVASVPDVEEILNEAEVKLDGVRQKIGQIAEELRGEDLHQFHRAFTPGIQEYVEAVSFHHFIRHRSLISLEEINARLVFIRDNNKAVGEGTFSSPCVLTFQITPTDYLLGVADLTGELMRMCISSVGNGDMDTPFQLSGFLRQIHDGFSLIGNTGPYEVSKKLHALRQSLGKVEDACYTLRVRGSEIPKHMLADVFSSRAAHIDPDDAMA` ?
stdout: not failed

stdin: Could you share which protein production value was measured for `MPFRTPNIANMTDKKFLPQLDENLPTDVFFHYFFLEAKTETLSHSHPWGQLHLIKQGRLEMEVDKQKMFCPANYAIWTPAHLLHRAFNHNDVEYCAINIEFELSQKLPTSACMFPLTPLLRAIVDDLVERQTTEVLSTEDKYLSHVLIERLSKTNPIENYLPFTDDKLLAPILMQLQENPADDSSLEIWAKRVFSTERTLARRFQKELKMSFNDWRQRAKLAKAMVLLKDAISINEIAYQLGYSQGSSFIKMFRKHTGVTPEQFRKEQQGK` ?
stdout: failed

stdin: Could you share which protein production value was measured for `MSAQSSVQPELAVRQWRTPLELGFLGVVWGCSFLFMRVAAPKFGTVVLVEIRLALGALVLLPFLWLARERFPLHRWPMLAAIGVLNSALPFLLFAWGAQHAPAAVGAICNAMTVLFTALIAFLFFGERIGTRRALALLVGFIGVLVLATGKSAGLSVGPAALAGATASLLYGIGYNLVKRHMGDLPPAASAASTLGCSALLLAPLAWWQWPTTPVPAVAWACATALGVVCTGLAFLMYYRLIQRIGPARASTVTYLVPVFGALLAWSLLGEPLTWTMLVAAVLILGSVAFSQRAR` ?
stdout: failed

stdin: Could you share which protein production value was measured for `MLHSSIVLVIKEETMNVAKMYDDVSERYQKLVDDSHYVGPRWISGKLKTLPIEQGSALDLACATGSIGHVVKNHYPDLTIHGLDISSKMVDKARQTNLYQSVSVHNLDEPFSPLFEQTFDLITALGFTEFLAEPQQLLECISRKLTANGRCFISFQYHDPDGQDLPRNTYSGSVVHTAYTESEVEQLCQQAGLEVVSLENVIGYVSGVGYVCRYLMLELKKSHR` ?
stdout: failed

stdin: Could you share which protein production value was measured for `MQSRFRSDRRLTVRMGVTLFLLGLLYVGFVAALIALLKSWVLVVVIVALVFGAQYWFSDRIALFAMRGRVVEREEYPELHGVVDRLAAMADMPKPVVAVSEMEMPNAFATGRNPDNAVVCVTTGLLRRLEPAELEGVLAHELSHVAHKDVAVITVASFLGVIAGLIVRFAFYSQLFGGRRDQNTLAVLAVVMGVSAAVYALSFLLIRALSRYRELAADRAAALLTGRPSALAAALTKVTGDIARIPTKDLRTAQAFNAFYFTPAFGSDPGLGRFFATHPSLEQRLDQLGRISTELGEAPAPGKA` ?
stdout: failed

stdin: Could you share which protein production value was measured for `MSGKRALITGIRGQDGAYLAKLLLEKGYEVYGADRRSGEFASWRLKELGIENDVKIIHMDLLEFSNIIRTIEKVQPDEVYNLAAQSFVGVSFEQPILTAEVDAIGVLRILEALRTVKPDTKFYQASTSEMFGKVQEIPQTEKTPFYPRSPYAVAKLFGHWITVNYREAYNMFACSGILFNHESPLRGIEFVTRKITYSLARIKYGLQDKLVLGNLNAKRDWGYAPEYVEAMWLMMQQPEPDDYVIATGETHTVREFVEKAAKIAGFDIEWVGEGINEKGIDRNTGKVIVEVSEEFFRPAEVDILVGNPEKAMKKLGWKPRTTFDELVEIMMEADLKRVRDREVSV` ?
stdout: not failed

stdin: Could you share which protein production value was measured for `MSAICQVTGRQPGYGKSVSHSHRRTSRRWNPNVQRRKFYLPSEGRTITLNVSTKGLKVIDRDGIESVVAKIRARGEKILEHHHHHH` ?
stdout: failed

* * *

test.name: label from the status in PepcDB records
assay.endpoint: protein production

Please review the entries below; each comes with its answer.
primary.sequence	protein production
IDPVMVAAFEGWNDAGDAASTAVAHLDREWKGEVFAALDAEDYYDFQVNRPTVWLDGGVRKITWPTTRLSVVRVGGEKPRDLVLVRGIEPSMRWRSFCNELLAFAHELGVELVVVLGALLGDTPHTRPVPVSGVTSDPDLARTMDLEETKYEGPTGIVGILQEACTHAGVPAVSLWAAVPHYVSQPPNPKATLALLNRLEDLIDVRIPLGELPEDARAWQVGVDQLAAEDSEVAEYVQSLEEARDTA	not failed
MKLQTTIQHEPKDGSGFDRGLREFFEYRDTGVNEATGGMFGAHVIRAIPGKEAKPTWHTHTVGFQLFYVLRGWVEFEYEDIGAVMLEAGGSAFQPPGVRHRELRHSDDLEVLEIVSPAGFATSVVDLEEARKP	not failed
MSYLEYTVKSTPSGLRKILYMNWPLTLLLISVASAGFLMLYSVAGGSFSPWAEPQIKRFMAGLVVMTAVAMVPIWFWRNMAAVAYGGSLVLLVMVELFGAVGMGAQRWIDLGFMRLQPSELTKITLVMVLAAYYDWLPGKKTSRPLWVLVPVLIILVPTALVLKQPDLGTAILLLSAGGALMFLAGVHWAYFAAVIAAGVGLITAVFKSRGTDWQLLKDYQFRRIDTFLDPSSDPLGAGYHITQSKIALGSGGWSGRGFMQGTQSRLNFLPEKHTDFIFTTLAEEFGFIGGISLLSLYALIIAFCVATALATRDRFSSLVTLGIAVNFFLFFAVNMSMVMGLAPVVGVPLPMVSYGGSAMLVLLVAFGLVHSAHIHRPR	failed
MKQRVITAVIALILFIPIVLAGGLWMDWLTVLFAAVGISEIFLMKKQILVSFDFLLALLATLTWTVPDSFFKVFPSNITKLGVFYGIIMLFLTWTVLSKNKTTFDDVGVYILAALYIGIGFHYMAAIRAYPQNGLALLGYVFVVVWSTDIGAYMIGRKIGKHKLWPVISPNKTWEGSIGAVICALICSAIYLAILSSFNITFGVSELSMVVLAFFLSIVGQMGDLVESAYKRFYGVKDSGKILPGHGGILDRFDSMLFVLPVVAAILGIVH	failed
MNVYDLIAEHYSGLFPLETEKLEFIQHLCPLPGRLCDAGCATGELVMGLYQKGYDICGLDLNEKMIGIAEKKASCIRKTGELMFYHADIADIMQFGKFKGVLCFGNTLPHLRDEEALRRFFGSVYRSLEEHGIFIVEVLNYDRILDDKKMDFKDKETKDFIFKRNYDFLPGGNIRFTIEFTDKQRSTVGSDFTVLHPLKRQMLLALFKQTGFKSVSAYSDYSFTESRAEDYAVVYTANK	failed
MTTIYLVRHGQASFGKANYDELSENGQAQATILGQYLKEILKEQPYVIAGTMKRHLQTAQGALKECFPDTHIYTHAGWNEFNHQQVFANYEPRFKQPELLKQDVAKEQNPRAYLAKIFESAISRWTDGEFHHEYEESWPKFKQRVEIALKMLCDELAQTKPRYAVVFTSGGVISVIAGKILELNPNRTFALNWAITNTSLTTLRLVGNEPQLLSLNEHHFIKVVNPALLTWI	failed
MLHLLTLSSLGRDLFNIKMLIVILITIGLITLMTILTYLLEQQVHRRQNRYWTIGAHGAEALSVLISMILLRQIFITLNSGSIISWTYATVQLTILLFSLNTMRNLAVEIINLLMPLFIYGQAIWLGHSTQYLPVFLAMAIILISTVVYITHNYQELHATQWKYLLFQILYSGTWWGVIWSVHPFKLSHTLVIILAFVLYMWLIRLAVNRVQKFFNEVLTFDQQVNYDELTGIRNRASFDTHAREVFAAYQHHQMGPVTMVMFDIDHFKAFNDQYGHLAGDAVLRHVAHFVELELNQRSTHGQIFRYGGEEFVIIFRGISALEAGQIMRTIQRKLKTVPIKFNVQTLNVTVSIGISELQPTDQTFTDWFVRVDDYLYQSKQAGRDQTTVESQLLTD	failed
MGLEEELLRIAKKLEKMVSRKKTEGALDLLKKLNSCQMSIQLLQTTRIGVAVNGVRKHCSDKEVVSLAKVLIKNWKRLLDSPRTTKGERE	not failed
AGVSISAQNLIKNEKFATEVTNKVTNPSKATAGEWFIMNNEADGVTTIAWEQTGDAKYPNAMKIDNSGAEKNTSWYKAFLGQRITDGLEKGIYVLTFYAKAKEAGTPVSVYIKQTNEEKNDNGKLNTTFFMRRDYDADAQPNASGAQYNFKIKDADKWTKVVVYYDMGQVVNAISSKKSNPALEVSDTDDDAAILKDCYVAILGQNKGGVVEISDVTLKKK	not failed
KWIFREPSRTDGDDVYALITECPPLDINSSYCNFLQATHFSKTCVLAEKDGDLAGFISGYQEPDEPNTLFIWQVAVSPRYRGKGLAFSMLTTLLERKNLLHIEFIETTITKANNASWSLFKKIDAQYGNQGQVTTFLDKESHFKGKHDTEYLYRIPL	failed

stdin: Could you share which protein production value was measured for `MDRNIDQELVSIIIPTHNRYESLIRAVKSCLHQSYKNIEVIIIDDNYSNVNLRNKIIHQFGYTNHRIKLILSNEDLGATNARNIGIKNSRGKYISFLDDDDEYMPDRILKLMACFKKSRMKNLALVCSYGIIIYPNGTREEEKTDFVGNPLFVQMVHNIAGTSFWLCKKEVLELINGFEKIDSHQDGVVLLKLLVQGYQIDIVREFLVNYYAHSKENGITGVTQKTINADEEYYNYCRKYFNLLSFNERILVTKKYYSLNIKRLLLIGDKCKALKVIKKAREEKIFNEFLF` ?
stdout: failed

stdin: Could you share which protein production value was measured for `MQAYIDRIGDFIQANQDWAGPITFLLTFGESMVLVGLLIPATALMLLTGGLIGAGTLSPWGVLAWGIAGAIAGDAVSYALGRWLGPGVMRRWPLNTQRSAVARARLFFYRYGFASVLIGRFLGPIRSTIPTVAGIMGMHHLRFQLANVLSAVAWLPLMLAPGYITARGLGAMDNAQHIGLAAGMGASVLIGCWLLVAVMRKRRQPARANRRP` ?
stdout: not failed
